- study target: SULT2A1 (Homo sapiens, UniProt Q06520)
- Sequence (Q06520 whole entry): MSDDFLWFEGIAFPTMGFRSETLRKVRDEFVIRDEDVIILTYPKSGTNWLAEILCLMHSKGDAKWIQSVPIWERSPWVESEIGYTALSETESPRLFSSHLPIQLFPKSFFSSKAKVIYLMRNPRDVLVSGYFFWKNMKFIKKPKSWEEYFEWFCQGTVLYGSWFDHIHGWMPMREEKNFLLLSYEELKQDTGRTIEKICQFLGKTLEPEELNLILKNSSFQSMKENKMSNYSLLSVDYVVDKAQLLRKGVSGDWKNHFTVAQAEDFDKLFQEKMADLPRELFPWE
observation type: Km (µM)
The answer is to be given in µM; state only the numeric part.

Write down the reported Km of O=C1Nc2c(CO)ccnc2N(C2CC2)c2ncccc21 [12-Hydroxynevirapine] , test system: SULT2A1 (Homo sapiens, UniProt Q06520).
545

----------
- study target: UniProtKB O75897
- Sequence (O75897 whole entry): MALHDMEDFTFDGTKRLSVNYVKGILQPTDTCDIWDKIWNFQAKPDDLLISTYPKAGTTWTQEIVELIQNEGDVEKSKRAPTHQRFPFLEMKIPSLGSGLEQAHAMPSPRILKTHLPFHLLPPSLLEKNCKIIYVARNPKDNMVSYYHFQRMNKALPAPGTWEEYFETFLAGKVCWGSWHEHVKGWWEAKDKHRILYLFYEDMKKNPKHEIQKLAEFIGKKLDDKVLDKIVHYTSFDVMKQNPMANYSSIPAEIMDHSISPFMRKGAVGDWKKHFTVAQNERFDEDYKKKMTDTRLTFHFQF
observation type: Km (µM)
Numbers only here, please. The scale is µM.

Recorded Km for O=C1Nc2c(CO)ccnc2N(C2CC2)c2ncccc21 [12-Hydroxynevirapine] , please?
260

----------
- study target: SULT1A1 (Homo sapiens, UniProt P50225)
- Sequence (P50225 whole entry): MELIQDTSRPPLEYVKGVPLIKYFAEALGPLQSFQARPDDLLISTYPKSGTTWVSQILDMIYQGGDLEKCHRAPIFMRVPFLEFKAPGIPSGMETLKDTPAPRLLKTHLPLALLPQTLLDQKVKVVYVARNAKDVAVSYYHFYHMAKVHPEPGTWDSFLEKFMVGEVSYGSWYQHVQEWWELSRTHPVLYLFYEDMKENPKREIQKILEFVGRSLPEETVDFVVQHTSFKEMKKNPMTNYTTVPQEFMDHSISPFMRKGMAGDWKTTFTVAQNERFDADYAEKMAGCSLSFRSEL
observation type: Km
State the result as a value with its unit after it.

Need Km, item O=C1Nc2c(CO)ccnc2N(C2CC2)c2ncccc21 [12-Hydroxynevirapine]
787 µM

----------
- study target: SULT1E1 (Homo sapiens, UniProt P49888)
- Sequence (P49888 whole entry): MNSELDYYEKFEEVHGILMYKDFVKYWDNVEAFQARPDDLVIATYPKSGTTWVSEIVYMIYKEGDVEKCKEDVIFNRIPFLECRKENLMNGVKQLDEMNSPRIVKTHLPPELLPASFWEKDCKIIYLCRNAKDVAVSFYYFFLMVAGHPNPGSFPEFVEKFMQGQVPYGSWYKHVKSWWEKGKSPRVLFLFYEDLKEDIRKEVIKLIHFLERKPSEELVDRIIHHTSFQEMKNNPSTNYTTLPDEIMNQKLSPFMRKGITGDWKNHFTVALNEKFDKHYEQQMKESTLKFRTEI
observation type: Km

# lookup: Km of O=C1Nc2c(CO)ccnc2N(C2CC2)c2ncccc21 [12-Hydroxynevirapine]
216 µM

These entries and their values trace back to paper PMC12434715.
